Reference for the values: PubChem BioAssay AID2060908

- Test system: 186277-243-T-J2-PDC complex spheroids, viability;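 further: spheroids exposed to compounds for 7 days before viability read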
- experiment summary: Anticancer human tumor 186277-243-T-J2-PDC patient-derived colon adenocarcinoma cell line growth inhibition [RAS]
- test context: second compound 0.0949 µM; first compound 0.0316 µM; active compounds read low
Provide the recorded viability, T/C for the entries that follow.
Reply with just the number (in %).

Q) I have this molecule here, Cc1nc(N2CCC3(CC2)COC(C)C3N)c(CO)nc1Sc1ccnc(N)c1Cl (stereo not given) + CCn1c(-c2cc(N3CCN(C)CC3)cnc2C(C)OC)c2c3cc(ccc31)-c1csc(n1)CC(NC(=O)C1CC1C)C(=O)N1CCCC(N1)C(=O)OCC(C)(C)C2 , and I need its recorded viability, T/C.
A) 5.71

Q) Same question, Cc1nc(N2CCC3(CC2)COC(C)C3N)c(CO)nc1Sc1ccnc(N)c1Cl (stereo not given) + CCn1c(-c2cccnc2C(C)OC)c2c3cc(ccc31)N1CCOC(CC(NC(=O)C(C(C)C)N(C)C(=O)C3(F)CCN(C(=O)C#CC(C)(C)N(C)C)CC3)C(=O)N3CCCC(N3)C(=O)OCC(C)(C)C2)C1 this time
A) 98.2

Q) Same question, NC1c2ccccc2OC12CCN(c1cnc3c(N4CCCc5ncccc54)n[nH]c3n1)CC2 (stereo not given) + CCn1c(-c2cccnc2C(C)OC)c2c3cc(ccc31)N1CCOC(CC(NC(=O)C(C(C)C)N(C)C(=O)C3(F)CCN(C(=O)C#CC(C)(C)N(C)C)CC3)C(=O)N3CCCC(N3)C(=O)OCC(C)(C)C2)C1 this time
A) 102

Q) Same question, O=C(c1ccc(F)c(F)c1Nc1ccc(I)cc1F)N1CC(O)([C@@H]2CCCCN2)C1 + CCn1c(-c2cccnc2C(C)OC)c2c3cc(ccc31)N1CCOC(CC(NC(=O)C(C(C)C)N(C)C(=O)C3(F)CCN(C(=O)C#CC(C)(C)N(C)C)CC3)C(=O)N3CCCC(N3)C(=O)OCC(C)(C)C2)C1 this time
A) 86.9

Q) Same question, CCN1CCN(Cc2ccc(Nc3ncc(F)c(-c4cc(F)c5nc(C)n(C(C)C)c5c4)n3)nc2)CC1 + CCn1c(-c2cccnc2C(C)OC)c2c3cc(ccc31)N1CCOC(CC(NC(=O)C(C(C)C)N(C)C(=O)C3(F)CCN(C(=O)C#CC(C)(C)N(C)C)CC3)C(=O)N3CCCC(N3)C(=O)OCC(C)(C)C2)C1 this time
A) 122

Q) Same question, O=C(c1ccc(F)c(F)c1Nc1ccc(I)cc1F)N1CC(O)([C@@H]2CCCCN2)C1 + CCn1c(-c2cc(N3CCN(C)CC3)cnc2C(C)OC)c2c3cc(ccc31)-c1csc(n1)CC(NC(=O)C1CC1C)C(=O)N1CCCC(N1)C(=O)OCC(C)(C)C2 this time
A) 4.04

Q) Same question, CCC(CC)c1cc(NC2CCC(N)C2)n2nccc2n1 (stereo not given) + CCn1c(-c2cc(N3CCN(C)CC3)cnc2C(C)OC)c2c3cc(ccc31)-c1csc(n1)CC(NC(=O)C1CC1C)C(=O)N1CCCC(N1)C(=O)OCC(C)(C)C2 this time
A) 8.36

Q) Same question, CC1(O)CCCC1n1c(=O)c(C(F)F)cc2cnc(NC3CCN(S(C)(=O)=O)CC3)nc21 (stereo not given) + CCn1c(-c2cccnc2C(C)OC)c2c3cc(ccc31)N1CCOC(CC(NC(=O)C(C(C)C)N(C)C(=O)C3(F)CCN(C(=O)C#CC(C)(C)N(C)C)CC3)C(=O)N3CCCC(N3)C(=O)OCC(C)(C)C2)C1 this time
A) 108

Q) Same question, C=CC(=O)Nc1cc(Nc2nccc(-c3cn(C)c4ccccc34)n2)c(OC)cc1N(C)CCN(C)C + CCn1c(-c2cccnc2C(C)OC)c2c3cc(ccc31)N1CCOC(CC(NC(=O)C(C(C)C)N(C)C(=O)C3(F)CCN(C(=O)C#CC(C)(C)N(C)C)CC3)C(=O)N3CCCC(N3)C(=O)OCC(C)(C)C2)C1 this time
A) 119

Q) Same question, CC1(O)CCCC1n1c(=O)c(C(F)F)cc2cnc(NC3CCN(S(C)(=O)=O)CC3)nc21 (stereo not given) + CCn1c(-c2cc(N3CCN(C)CC3)cnc2C(C)OC)c2c3cc(ccc31)-c1csc(n1)CC(NC(=O)C1CC1C)C(=O)N1CCCC(N1)C(=O)OCC(C)(C)C2 this time
A) 9.76

Q) Same question, CCN1CCN(Cc2ccc(Nc3ncc(F)c(-c4cc(F)c5nc(C)n(C(C)C)c5c4)n3)nc2)CC1 + CCn1c(-c2cc(N3CCN(C)CC3)cnc2C(C)OC)c2c3cc(ccc31)-c1csc(n1)CC(NC(=O)C1CC1C)C(=O)N1CCCC(N1)C(=O)OCC(C)(C)C2 this time
A) 6.72

Q) Same question, Nc1ccn(C2OC(CO)C(O)C2(F)F)c(=O)n1 (stereo not given) + CCn1c(-c2cccnc2C(C)OC)c2c3cc(ccc31)N1CCOC(CC(NC(=O)C(C(C)C)N(C)C(=O)C3(F)CCN(C(=O)C#CC(C)(C)N(C)C)CC3)C(=O)N3CCCC(N3)C(=O)OCC(C)(C)C2)C1 this time
A) 8.39

Q) Same question, CC(Nc1ccc2c(c1)OCCn1cc(N3C(=O)OCC3C(F)F)nc1-2)C(N)=O (stereo not given) + CCn1c(-c2cc(N3CCN(C)CC3)cnc2C(C)OC)c2c3cc(ccc31)-c1csc(n1)CC(NC(=O)C1CC1C)C(=O)N1CCCC(N1)C(=O)OCC(C)(C)C2 this time
A) 4.51

Q) Same question, CC(C)n1nc(-c2ccc3oc(N)nc3c2)c2c(N)ncnc21 + CCn1c(-c2cccnc2C(C)OC)c2c3cc(ccc31)N1CCOC(CC(NC(=O)C(C(C)C)N(C)C(=O)C3(F)CCN(C(=O)C#CC(C)(C)N(C)C)CC3)C(=O)N3CCCC(N3)C(=O)OCC(C)(C)C2)C1 this time
A) 55.8

Q) Same question, CC(=O)OC12COC1CC(O)C1(C)C(=O)C(O)C3=C(C)C(OC(=O)C(O)C(NC(=O)OC(C)(C)C)c4ccccc4)CC(O)(C(OC(=O)c4ccccc4)C21)C3(C)C (stereo not given) + CCn1c(-c2cc(N3CCN(C)CC3)cnc2C(C)OC)c2c3cc(ccc31)-c1csc(n1)CC(NC(=O)C1CC1C)C(=O)N1CCCC(N1)C(=O)OCC(C)(C)C2 this time
A) 2.92
